molecular target: Bcl-2-like protein 1 (Homo sapiens, UniProt Q07817); experiment: Binding affinity to Bcl-XL (unknown origin) by fluorescence polarization assay
Sequence (Q07817 whole entry): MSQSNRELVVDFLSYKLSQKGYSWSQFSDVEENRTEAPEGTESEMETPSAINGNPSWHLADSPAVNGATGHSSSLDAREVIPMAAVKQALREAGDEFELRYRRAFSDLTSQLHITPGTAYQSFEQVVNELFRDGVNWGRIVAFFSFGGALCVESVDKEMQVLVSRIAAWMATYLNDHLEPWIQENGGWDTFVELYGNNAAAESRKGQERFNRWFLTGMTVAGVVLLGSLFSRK
Quantity Name: Ki (µM)
Give the number; µM is assumed, so skip it.

Qu. Record "O=C(NS(=O)(=O)c1ccc(NC2CCOCC2)c([N+](=O)[O-])c1)c1ccc(N2CCN(CC3=C(c4ccc(Cl)cc4)CCOC3)CC2)cc1" : what is its Ki with Bcl-2-like protein 1 (Homo sapiens, UniProt Q07817)?
Ans. 5.54
